Source listed as the supplement of paper PMC6555819.

System: THRa homodimer (NR concentration 90 nM)
Test: PBM binding z-score (relative to random genomic background probes); higher = stronger binding; sequences stand for … in GC…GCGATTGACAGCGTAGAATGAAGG
observed_property: PBM binding z-score

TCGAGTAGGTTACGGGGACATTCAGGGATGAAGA; 1.57
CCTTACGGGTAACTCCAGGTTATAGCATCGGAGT; 0.292
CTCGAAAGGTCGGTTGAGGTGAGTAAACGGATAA; 1.19
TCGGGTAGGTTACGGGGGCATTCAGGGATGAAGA; 3.14
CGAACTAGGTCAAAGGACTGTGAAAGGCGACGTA; -0.114
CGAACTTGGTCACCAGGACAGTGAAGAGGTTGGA; 0.644
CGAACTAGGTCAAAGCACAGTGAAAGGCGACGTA; 0.0185
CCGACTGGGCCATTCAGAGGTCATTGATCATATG; 1.22
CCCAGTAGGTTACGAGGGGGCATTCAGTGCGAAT; 0.525
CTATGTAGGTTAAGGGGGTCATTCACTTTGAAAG; 1.72
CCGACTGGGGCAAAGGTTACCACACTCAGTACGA; 0.0247
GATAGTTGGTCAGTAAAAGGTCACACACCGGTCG; 1.91
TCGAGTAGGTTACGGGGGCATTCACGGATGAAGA; 1.23
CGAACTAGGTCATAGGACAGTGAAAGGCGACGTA; 0.357
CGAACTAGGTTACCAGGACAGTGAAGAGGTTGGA; 0.878
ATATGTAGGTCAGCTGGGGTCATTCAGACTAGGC; 3.41
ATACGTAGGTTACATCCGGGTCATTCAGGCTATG; 2.5
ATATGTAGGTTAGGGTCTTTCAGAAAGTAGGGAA; 1.22
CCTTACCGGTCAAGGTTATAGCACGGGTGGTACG; 0.941
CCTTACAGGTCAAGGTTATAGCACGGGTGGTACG; 1.33
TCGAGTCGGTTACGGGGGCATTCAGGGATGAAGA; 0.955
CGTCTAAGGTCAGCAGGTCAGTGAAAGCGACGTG; 3.96
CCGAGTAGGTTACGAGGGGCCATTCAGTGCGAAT; -0.418
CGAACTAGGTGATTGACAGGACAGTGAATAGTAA; 0.252
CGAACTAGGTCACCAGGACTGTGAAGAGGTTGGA; 1.3
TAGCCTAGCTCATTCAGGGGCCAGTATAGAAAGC; -0.799

###

Test system: LXRa:RXRa (NR concentration 270 nM, RXRa partner concentration 90 nM)
Experiment: PBM binding z-score (relative to random genomic background probes); higher = stronger binding; sequences stand for … in GC…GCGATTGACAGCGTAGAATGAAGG
observed_property: PBM binding z-score

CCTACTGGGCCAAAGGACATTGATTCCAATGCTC; -0.0828
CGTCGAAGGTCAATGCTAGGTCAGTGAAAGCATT; 5.54
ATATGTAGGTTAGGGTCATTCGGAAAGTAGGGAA; 4.43
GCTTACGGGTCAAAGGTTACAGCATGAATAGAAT; 5.9
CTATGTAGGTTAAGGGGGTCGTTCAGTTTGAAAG; 2.72
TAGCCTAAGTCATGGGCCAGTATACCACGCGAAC; -0.0929
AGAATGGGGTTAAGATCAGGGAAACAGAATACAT; 3.54
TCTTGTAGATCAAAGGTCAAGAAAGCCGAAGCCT; 5.21
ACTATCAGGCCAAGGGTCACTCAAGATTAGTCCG; 3.13
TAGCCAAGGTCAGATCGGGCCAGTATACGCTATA; 3.12
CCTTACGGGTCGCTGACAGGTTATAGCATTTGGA; 1.23
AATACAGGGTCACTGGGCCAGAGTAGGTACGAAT; 5.6
